tested on: biotinyl-Leu-oxazolone; assay: self-aminoacylation, catalytic enhancement (BLO) (fold over background); higher = more active; k-Seq, kA / k0A0; sequences stand for … in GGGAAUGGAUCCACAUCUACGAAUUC…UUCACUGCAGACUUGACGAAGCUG
Variants at the floor of the assay were thinned out.
Quantity Name: self-aminoacylation
Give the figure by itself; no unit, no explanation.

self-aminoacylation measured on UUUCCCCUAGGUCAUCGGGUG [Fam2.2 aminoacylation ribozyme variant] = 15.1

* * *

tested on: biotinyl-Phe-oxazolone; test: self-aminoacylation, catalytic enhancement (BFO) (fold over background); higher = more active; k-Seq, kA / k0A0; sequences stand for … in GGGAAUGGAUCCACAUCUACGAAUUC…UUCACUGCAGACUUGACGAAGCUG
This sample holds only a part of the variants without activity.
Quantity Name: self-aminoacylation
# answer = number (no unit)

# annotated cases, reported self-aminoacylation shown
* CCACCCGUCAAGCAAUCGGUC [Fam1B.1 aminoacylation ribozyme variant] | 1.12
* AGUCACCUAGGUCAUCGUGUG [Fam2.2 aminoacylation ribozyme variant] | 7.83
* AUUACCCUGUUCAUCGAGUGA [Fam2.1 aminoacylation ribozyme variant] | 16.6

Lab note: CCACCCUUCAAACAAUCGGUC [Fam1B.1 aminoacylation ribozyme variant] gave self-aminoacylation of 81.3

* * *

system: biotinyl-Phe-oxazolone; experiment: self-aminoacylation, catalytic enhancement (BFO) (fold over background); higher = more active; k-Seq, kA / k0A0; sequences stand for … in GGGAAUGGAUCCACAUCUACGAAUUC…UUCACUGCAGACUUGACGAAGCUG
Variants at the floor of the assay were thinned out.
Categorize each record by its self-aminoacylation using L = under 3, M = from 3 up to 10, H = 10 and over

Take a look at these entries with their results.
- AUUAACCGGGUCAUCGAGUGA [Fam2.1 aminoacylation ribozyme variant]: H
- AAGUUUGGUAAUAGUCGGAAG [Fam3.1 aminoacylation ribozyme variant]: L
- GAGUUUGCUAAUAGUCACAAG [Fam3.1 aminoacylation ribozyme variant]: H
- CCACACUUCAAGUAGUCGGUC [Fam1B.1 aminoacylation ribozyme variant]: L
- AUUCACCGAGGUCAUCGGGAG [Fam2.2 aminoacylation ribozyme variant]: M

(Q) Band of AUUCACUUAGGUCAUCGGGUC [Fam2.2 aminoacylation ribozyme variant] ?
(A) L

* * *

test system: biotinyl-Met-oxazolone; experiment: self-aminoacylation, catalytic enhancement (BMO) (fold over background); higher = more active; k-Seq, kA / k0A0; sequences stand for … in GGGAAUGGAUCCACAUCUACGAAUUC…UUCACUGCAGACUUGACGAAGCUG
Variants at the floor of the assay were thinned out.
Would you mind sorting the entries by self-aminoacylation according to these classes? lower range: < 1; middle range: ≥ 1 and < 5; upper range: ≥ 5

- AUUUACCUAGGUCAUCGGAUG [Fam2.2 aminoacylation ribozyme variant]: lower range
- UUACAUCAAACAAUCGGUCUG [Fam1A.1 aminoacylation ribozyme variant]: middle range
- AUUACACAGGUCAUCGAGUGA [Fam2.1 aminoacylation ribozyme variant]: middle range

Let's switch to this sequence now.
(Q) State the band of AUUACCCUGUUCAUCCAGUGA [Fam2.1 aminoacylation ribozyme variant]
(A) upper range

* * *

tested on: biotinyl-Trp-oxazolone; experiment: self-aminoacylation, catalytic enhancement (BWO) (fold over background); higher = more active; k-Seq, kA / k0A0; sequences stand for … in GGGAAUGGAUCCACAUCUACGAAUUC…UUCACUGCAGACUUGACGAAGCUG
Fewer inactive variants are shown than the library holds.
Each item that follows carries a reported self-aminoacylation.
Lab note: write the figure by itself, no unit.

response.value for CUACUUCAAACAAUUGGUCGG [Fam1A.1 aminoacylation ribozyme variant] (field: self-aminoacylation) = 0.932

Quick note, self-aminoacylation for GGACACUUCAAGCAAUCGGUC [Fam1B.1 aminoacylation ribozyme variant] landed at 22.5

Lookup result for AAGUUUGCCAAUAGACGCAAG [Fam3.1 aminoacylation ribozyme variant] ; measured self-aminoacylation: 0.482
